The reported measurements were obtained from patent EP0370436A2.

test system: male Wister rats; experiment: Submerged restraint stress ulcer test; assay type: in vivo; conditions: Rattus norvegicus, oral, once, 30 mg/5 ml/kg body weight in 0.5% CMC, 1 h before 6 h water immersion restraint stress, read-out: Ulceration inhibitory ratio (%)
Give inhibition in vivo at 30 mg/kg for every item shown.
Answers are plain numbers, in %.

Below: 5 compounds and their reported inhibition in vivo at 30 mg/kg.
[O-][S+](CCOCCOCCO)c1nc2cc(Cl)ccc2s1 (centres unmarked); 63.5
CCOCC[S+]([O-])c1nc2ccccc2s1 (centres unmarked) [Example 4, 2-[(2-Ethoxyethyl)sulfinyl]benzothiazole]; 59.9
CCOCCSc1nc2cc(Cl)ccc2s1; 57
COc1ccc2[nH]c([S+]([O-])Cc3ncc(C)c(OC)c3C)nc2c1 (centres unmarked) [omeprazole, reference compound]; 99
[O-][S+](CCO)c1nc2cc(Cl)ccc2s1 (centres unmarked); 58.5

Please supply inhibition in vivo at 30 mg/kg for each of the following items, keeping them in order.
1. CCOCC[S+]([O-])c1nc2cc(Cl)ccc2s1 (centres unmarked)
2. CCOCCS(=O)(=O)c1nc2cc(Cl)ccc2s1
3. CCOCC[S+]([O-])c1nc2ccccc2[nH]1 (centres unmarked) [Example 17, 2-[(2-Ethoxyethyl)sulfinyl]benzimidazole]

(A)
[93, 35.3, 73.6]
